# reported Remain, working solution; entries follow
test: Stability of stock and working solutions; type: physicochemical; settings: working solution; concentration LLOQ; from stock kept at 4°C for 2 weeks; n = 6
Give just the number in %; leave the unit off.

Reference set, count: 2
O=C1c2ccccc2-c2c3c(cc4ccnc1c24)OCO3 [Liriodenine, liriodenine]: 105
COc1cc2c3c(c1OC)-c1ccccc1C[C@H]3N(C)CC2 [Nunciferine, nunciferine]: 101

Q: Param item = COc1cc2c3c(c1OC)C1(C=CC(=O)C=C1)C[C@H]3N(C)CC2 [Pronuciferine, pronuciferine] ; retrieve measured Remain, working solution.
A: 99.3

Q: Further, for COc1cc2c(cc1OC)C(Cc1ccc(O)cc1)N(C)CC2 (stereo not shown) [Armepavine, armepavine] ?
A: 96.3

====

# half-life listing for each entry below
assay: Pharmacokinetics of five alkaloids in rat plasma after oral administration of lotus leaf extract; type: in vivo, Male Sprague-Dawley rats; settings: male, Sprague-Dawley, rat, in vivo, po, 2.4 g/kg
Please report the result as a number followed by the unit.

COc1cc2c3c(c1OC)C1(C=CC(=O)C=C1)C[C@H]3N(C)CC2: 4.44 h

Shift focus to the following entry.
Q: Entry COc1cc2c(cc1OC)C(Cc1ccc(O)cc1)N(C)CC2 (centres unmarked) : reported half-life = ?
A: 5.22 h

====

experiment: Pharmacokinetics of five alkaloids in rat plasma after oral administration of lotus leaf extract; assay type: in vivo, Male Sprague-Dawley rats; details: male, Sprague-Dawley, rat, in vivo, po, 2.4 g/kg, rat plasma; oral lotus leaf extract 2.4 g·kg^−1; n = 10; mean ± SD; read-out: AUC(0–∞)
TEST_READOUT: AUC(0-inf) (µg·h/mL)
Reply numerically in µg·h/mL, unit not repeated.

Q: Returns the measured AUC(0-inf) for the input compound. Input: O=C1c2ccccc2-c2c3c(cc4ccnc1c24)OCO3
A: 0.429

====

test: Pharmacokinetics of five alkaloids in rat plasma after oral administration of lotus leaf extract; assay type: in vivo, Male Sprague-Dawley rats; conditions: male, Sprague-Dawley, rat, in vivo, po, 2.4 g/kg, rat plasma; oral lotus leaf extract 2.4 g·kg^−1; n = 10; mean ± SD; read-out: MRT(0–tn)
# reported MRT; entries follow
Dear colleague, please return just the value in h, with no unit written.

COc1cc2c3c(c1OC)-c1ccccc1C[C@H]3N(C)CC2 [Nunciferine, nunciferine]: 5.49

Q: Could you share which MRT value was measured for O=C1c2ccccc2-c2c3c(cc4ccnc1c24)OCO3 [Liriodenine, liriodenine] ?
A: 7.11

====

Reported half-life is given for each of the following compounds.
test: Pharmacokinetics of five alkaloids in rat plasma after oral administration of lotus leaf extract; assay type: in vivo, Male Sprague-Dawley rats; conditions: male, Sprague-Dawley, rat, in vivo, po, 2.4 g/kg, rat plasma; oral lotus leaf extract 2.4 g·kg^−1; n = 10; one compartment model; mean ± SD; read-out: T1/2 (converted)
Value expressed in h; do not type the unit.

O=C1c2ccccc2-c2c3c(cc4ccnc1c24)OCO3: 3.77

Q: Query (compound): COc1cc2c3c(c1OC)-c1ccccc1C[C@H]3N(C)CC2 ; field requested: half-life
A: 6.18

====

Assay: Pharmacokinetics of five alkaloids in rat plasma after oral administration of lotus leaf extract
Assay type: in vivo, Male Sprague-Dawley rats
Conditions: rat plasma; oral lotus leaf extract 2.4 g·kg^−1
Description: All analyses were performed on Agilent 1200 HPLC system (Agilent Corporation, USA) and API 3200 triple-quadrupole mass spectrometer (Concord, Ontario, Canada) in multiple-reaction monitoring (MRM) with positive ionization mode. […] The real plasma sample (100 µl) and IS solution (10 µl) were vortex-mixed for 1 min. […] Then final solutions were injected into the HPLC-MS/MS and analyzed. […]
TEST_READOUT: AUCs(0–24 h) (ng·h/mL)
A number alone suffices; assume ng·h/mL.

Q: Report AUCs(0–24 h) for COc1cc2c3c(c1OC)-c1ccccc1C[C@H]3N(C)CC2 [Nunciferine, nunciferine] please.
A: 2070
